Can you tell me total protein half-life in vivo for the items I'm about to list?
Assay: total protein half-life in vivo (active degradation + dilution); higher = more stable protein
Conditions: E. coli NCM3722 delta-clpP delta-lon delta-hslV; growth: N-lim chemostat; doubling time 6 h
The answer is to be given in h; state only the numeric part.

Short answer for "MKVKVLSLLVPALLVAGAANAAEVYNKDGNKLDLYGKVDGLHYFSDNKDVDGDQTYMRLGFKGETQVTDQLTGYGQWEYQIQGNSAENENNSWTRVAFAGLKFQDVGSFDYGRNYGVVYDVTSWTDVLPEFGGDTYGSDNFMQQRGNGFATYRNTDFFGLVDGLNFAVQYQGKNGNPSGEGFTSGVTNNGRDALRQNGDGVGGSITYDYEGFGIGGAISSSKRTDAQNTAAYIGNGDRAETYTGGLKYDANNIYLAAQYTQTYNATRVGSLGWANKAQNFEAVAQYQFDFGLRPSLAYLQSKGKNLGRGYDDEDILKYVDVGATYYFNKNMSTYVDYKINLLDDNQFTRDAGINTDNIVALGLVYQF" : total protein half-life in vivo was 7.59

The recorded total protein half-life in vivo for entry "MLDNVLRIATRQSPLALWQAHYVKDKLMASHPGLVVELVPMVTRGDVILDTPLAKVGGKGLFVKELEVALLENRADIAVHSMKDVPVEFPQGLGLVTICEREDPRDAFVSNNYDSLDALPAGSIVGTSSLRRQCQLAERRPDLIIRSLRGNVGTRLSKLDNGEYDAIILAVAGLKRLGLESRIRAALPPEISLPAVGQGAVGIECRLDDSRTRELLAALNHHETALRVTAERAMNTRLEGGCQVPIGSYAELIDGEIWLRALVGAPDGSQIIRGERRGAPQDAEQMGISLAEELLNNGAREILAEVYNGDAPA" equals 3.85
